target.under.test: UniProt O00329
Sequence (O00329 whole entry, one chain of several): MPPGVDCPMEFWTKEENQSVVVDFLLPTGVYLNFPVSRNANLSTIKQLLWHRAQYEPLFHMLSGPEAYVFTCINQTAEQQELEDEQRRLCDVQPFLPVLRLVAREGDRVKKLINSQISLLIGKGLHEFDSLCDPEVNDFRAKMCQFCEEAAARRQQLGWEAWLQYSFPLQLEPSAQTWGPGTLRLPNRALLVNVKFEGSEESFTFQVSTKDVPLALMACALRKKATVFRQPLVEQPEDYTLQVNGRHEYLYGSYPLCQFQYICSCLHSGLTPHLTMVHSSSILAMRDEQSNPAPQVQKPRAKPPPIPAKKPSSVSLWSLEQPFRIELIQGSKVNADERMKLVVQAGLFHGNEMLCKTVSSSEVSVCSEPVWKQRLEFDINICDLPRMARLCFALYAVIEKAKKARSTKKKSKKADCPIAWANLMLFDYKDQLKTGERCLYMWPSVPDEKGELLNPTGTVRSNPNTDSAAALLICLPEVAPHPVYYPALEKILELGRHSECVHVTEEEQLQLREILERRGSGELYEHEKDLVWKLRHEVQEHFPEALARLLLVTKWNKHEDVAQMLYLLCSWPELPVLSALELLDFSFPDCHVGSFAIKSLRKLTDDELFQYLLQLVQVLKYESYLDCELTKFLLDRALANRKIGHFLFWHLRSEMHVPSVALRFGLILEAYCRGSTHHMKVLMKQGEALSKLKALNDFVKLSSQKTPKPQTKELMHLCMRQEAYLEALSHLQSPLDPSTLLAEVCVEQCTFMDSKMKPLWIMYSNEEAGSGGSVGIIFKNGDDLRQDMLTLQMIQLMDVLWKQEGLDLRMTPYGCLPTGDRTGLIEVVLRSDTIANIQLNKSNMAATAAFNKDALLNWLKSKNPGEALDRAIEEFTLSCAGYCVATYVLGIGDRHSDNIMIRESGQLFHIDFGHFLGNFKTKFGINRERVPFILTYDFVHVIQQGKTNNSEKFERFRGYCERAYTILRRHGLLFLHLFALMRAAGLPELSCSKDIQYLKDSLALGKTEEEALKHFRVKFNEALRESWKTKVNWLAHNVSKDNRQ
test.name: PI3K binding assay (lipid kinase reaction, ADP-Glo), PI3K delta
Format: biochemical
assay.context: Table 2B comparator compounds; first value of cell (ADP-Glo)
Listing of recorded pKi by entry.
The read-out pKi is expressed as -log10 of concentration in moles per litre.

Q: Which pKi is reported for this compound? C[C@H](Oc1ccc2c(c1)OCCn1cc(-c3ncnn3CC(F)(F)F)nc1-2)C(N)=O [Compound 486, reference compound]
A: 8.60

Q: Which pKi is reported for this compound? C[C@H](Oc1ccc2c(c1)OCCn1cc(-c3ncnn3C)nc1-2)C(N)=O [Compound 540, reference compound]
A: 7.62

Q: Which pKi is reported for this compound? CC(C)n1ncnc1-c1cn2c(n1)-c1ccc(N3CCC[C@H]3C(N)=O)cc1OCC2 [Compound 375, reference compound]
A: 9.45

Q: Which pKi is reported for this compound? CCn1ncnc1-c1cn2c(n1)-c1ccc(O[C@@H](C)C(N)=O)cc1OCC2 [Compound 544, reference compound]
A: 7.95

----------
target.under.test: UniProt:P42338
Sequence (P42338 whole entry): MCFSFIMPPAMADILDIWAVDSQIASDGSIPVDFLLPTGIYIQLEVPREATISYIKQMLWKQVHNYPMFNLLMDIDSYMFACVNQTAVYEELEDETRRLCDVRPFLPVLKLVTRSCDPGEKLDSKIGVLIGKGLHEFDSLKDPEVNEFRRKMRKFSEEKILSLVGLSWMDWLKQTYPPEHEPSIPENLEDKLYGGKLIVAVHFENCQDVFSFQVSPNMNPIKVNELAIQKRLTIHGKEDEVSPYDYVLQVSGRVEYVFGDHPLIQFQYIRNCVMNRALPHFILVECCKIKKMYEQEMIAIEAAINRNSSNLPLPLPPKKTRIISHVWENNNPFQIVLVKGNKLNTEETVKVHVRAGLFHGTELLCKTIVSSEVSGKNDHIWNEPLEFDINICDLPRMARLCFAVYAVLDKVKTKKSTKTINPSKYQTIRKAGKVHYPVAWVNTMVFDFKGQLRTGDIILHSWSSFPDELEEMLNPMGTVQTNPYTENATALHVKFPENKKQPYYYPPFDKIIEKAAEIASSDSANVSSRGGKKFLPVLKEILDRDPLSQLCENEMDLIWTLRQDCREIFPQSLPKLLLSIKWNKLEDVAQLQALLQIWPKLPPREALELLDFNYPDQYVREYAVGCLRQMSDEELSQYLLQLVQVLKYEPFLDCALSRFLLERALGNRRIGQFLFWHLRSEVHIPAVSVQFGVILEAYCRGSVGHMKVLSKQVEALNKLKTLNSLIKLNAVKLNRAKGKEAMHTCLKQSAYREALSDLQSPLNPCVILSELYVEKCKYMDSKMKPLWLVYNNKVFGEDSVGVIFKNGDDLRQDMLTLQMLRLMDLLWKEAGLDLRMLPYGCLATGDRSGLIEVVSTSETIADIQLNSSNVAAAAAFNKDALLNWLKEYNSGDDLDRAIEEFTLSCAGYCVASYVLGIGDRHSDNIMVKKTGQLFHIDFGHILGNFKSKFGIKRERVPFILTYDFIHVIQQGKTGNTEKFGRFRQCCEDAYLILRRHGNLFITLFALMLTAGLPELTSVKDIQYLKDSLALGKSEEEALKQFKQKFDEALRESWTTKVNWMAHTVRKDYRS
Sequence (P27986 whole entry partner): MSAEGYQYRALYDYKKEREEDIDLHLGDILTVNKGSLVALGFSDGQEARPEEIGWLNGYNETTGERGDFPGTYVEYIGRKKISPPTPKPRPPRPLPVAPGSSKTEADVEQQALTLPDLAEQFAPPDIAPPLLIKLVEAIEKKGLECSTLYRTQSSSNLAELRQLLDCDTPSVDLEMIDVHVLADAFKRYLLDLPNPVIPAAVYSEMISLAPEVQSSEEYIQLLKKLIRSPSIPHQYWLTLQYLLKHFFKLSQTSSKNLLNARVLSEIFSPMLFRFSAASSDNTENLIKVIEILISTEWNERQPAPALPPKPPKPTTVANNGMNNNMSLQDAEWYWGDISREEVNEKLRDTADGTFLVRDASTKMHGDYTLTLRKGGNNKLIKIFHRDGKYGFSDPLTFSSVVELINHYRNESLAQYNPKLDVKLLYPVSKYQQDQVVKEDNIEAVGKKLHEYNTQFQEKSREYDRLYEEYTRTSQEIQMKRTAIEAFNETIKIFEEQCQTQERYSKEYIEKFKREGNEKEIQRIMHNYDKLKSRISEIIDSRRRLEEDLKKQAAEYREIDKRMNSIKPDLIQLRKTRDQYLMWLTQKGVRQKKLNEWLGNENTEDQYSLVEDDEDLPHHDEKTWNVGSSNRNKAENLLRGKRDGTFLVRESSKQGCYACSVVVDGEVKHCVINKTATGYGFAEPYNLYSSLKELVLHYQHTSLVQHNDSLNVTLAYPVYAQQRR
test.name: Fluorescence polarization (FP) Ki, methods of Example 901 of U.S. Pat. No. 8,242,104, PI3K beta
assay.context: read-out: PI3Kβ FP Ki; Table 2A; second value of cell after slash (FP)
measurement.label: pKi
The read-out pKi is expressed as -log10 of concentration in moles per litre.

Q: Which pKi is reported for this molecule? Cc1nc(-c2cn3c(n2)-c2ccc(-c4cnn(C(C)(C)C(N)=O)c4)cc2OCC3)n(C(C)C)n1 [taselisib, reference compound]
A: 8.04

----------
System: P-PRAS40 SW48(H1047R)
test.name: Inhibition of P-PRAS40 in SW48 isogenic cells, PI3Kα mutant H1047R
Type: cell-based
assay.context: Table 3A; EC50 potency ratio; p value (Student t-Test) given
Listing of recorded Fold Selectivity for SW48(H1047R) vs. SW48(parental) by entry.

Below are worked cases with known answers.
CC(C)[C@@H]1COC(=O)N1c1cn2c(n1)-c1ccc(O[C@@H](C)C(N)=O)cc1OCC2 [Compound 101] : 2.1 (p < 0.001)
C[C@H](Oc1ccc2c(c1)OCCn1cc(N3C(=O)OC[C@H]3C(F)F)nc1-2)C(N)=O [Compound 107] : 2.7 (p < 0.001)
NC(=O)[C@@H]1CCCN1c1ccc2c(c1)OCCn1cc(N3C(=O)OC[C@H]3C(F)(F)F)nc1-2 [Compound 103] : 2.6 (p = 0.002)
C[C@H](Oc1ccc2c(c1)OCCn1cc(N3C(=O)OC[C@H]3C(F)(F)F)nc1-2)C(N)=O [Compound 105] : 3.7 (p = 0.008)
NC(=O)[C@@H]1CCCN1c1ccc2c(c1)OCCn1cc(N3C(=O)OC[C@H]3C(F)F)nc1-2 [Compound 106] : 1.9 (p < 0.001)
C[C@@H]1COC(=O)N1c1cn2c(n1)-c1ccc(N3CCC[C@H]3C(N)=O)cc1OCC2 [Compound 102] : 2.4 (p < 0.001)
CC[C@@H]1COC(=O)N1c1cn2c(n1)-c1ccc(O[C@@H](C)C(N)=O)cc1OCC2 [Compound 104] : 2.6 (p = 0.003)
C[C@H](Oc1ccc2c(c1)OCCn1cc(N3C(=O)OC[C@H]3CF)nc1-2)C(N)=O [Compound 109] : 2.6 (p < 0.001)

Now let's try a different one.
Q: For P-PRAS40 SW48(H1047R), provide Fold Selectivity for SW48(H1047R) vs. SW48(parental) of NC(=O)[C@@H]1CCCN1c1ccc2c(c1)OCCn1cc(N3C(=O)OC[C@H]3CF)nc1-2 [Compound 108] please.
A: 2.2 (p < 0.001)
